measurementParameters: 293.15 K; 101.3 kPa; Liquid; Concentric cylinders viscometry
± gives the expanded uncertainty stated by the source.
measuredMetric: viscosity
Write the numeric value and follow it with the unit.

For the compound shown here, `CCn1cc[n+](C)c1C.O=S(=O)([N-]S(=O)(=O)C(F)(F)F)C(F)(F)F` , give the reported viscosity. 89.88 ± 1.3 mPa·s

----------
measurementParameters: 308.15 K; 101.3 kPa; Liquid; Vibrating tube method
Numbers after ± are expanded uncertainties.
measuredMetric: mass density

COC(=O)OC [dimethyl carbonate] :: 1049.7 ± 2.4 kg/m3
CCn1cc[n+](C)c1C.O=S(=O)([N-]S(=O)(=O)C(F)(F)F)C(F)(F)F :: 1481.5 ± 2.5 kg/m3
CCOC(=O)OCC [diethyl carbonate] :: 958 ± 2.4 kg/m3

Next:
For the compound shown here, `CCCCn1cc[n+](C)c1C.O=S(=O)([N-]S(=O)(=O)C(F)(F)F)C(F)(F)F` , give the reported mass density. 1409.3 ± 2.5 kg/m3
